- System: SN12C renal
- assayMethodText: NCI-60 one-dose screen, 48 h (100 = growth as untreated, 0 = no growth, -100 = all killed)
- protocolConditions: 10 µM unless noted
This is part of a sample that, as a whole, favours compounds with a hit. Of some 83,000 tested, about 20% had one in any assay. Calls of active or inactive are those of the source. The calls were made as follows: active = growth percent below 10; inactive = the rest.
propertyName: growth

Some solved cases for reference:
molecule	propertyName	measValue
Cn1cc(-c2cc3nc(-c4cn(C)c5ncc(Br)cc45)cc(N)n3n2)c2ccccc21	growth	-82.2% (active)
COc1ccc(-c2nnc3ccc(N/N=C/c4ccc(O)cc4)nn23)cc1	growth	42.3% (inactive)
NC(=S)Nc1cccc(NC(N)=S)c1	growth	81.9% (inactive)
COc1cc2c(c(OC)c1OC)C(=O)CC(c1cccc(NC(=O)c3cccc(NC(=O)[C@H](C)NC(=O)OC(C)(C)C)c3)c1)O2 (some centres not stated)	growth	59.9% (inactive)
Cc1ccc(C2=NN(c3nc(-c4cc5ccccc5oc4=O)cs3)C(c3ccc(C)cc3)C2)cc1 (configuration not stated)	growth	104% (inactive)
COc1ccc(NC(=O)Nc2ccc(OCc3ccc(F)cc3)cc2)cc1	growth	55.7% (inactive)

With those in mind, consider the next molecule.
What reported growth corresponds to "Clc1cccc(Cl)c1/C=C/c1cc(/C=C/c2ccc(Br)cc2)c2ccccc2n1" on SN12C renal?
93.2% (inactive)

----------
- Tested on: NCI-H522 lung
- assayMethodText: NCI-60 one-dose screen, 48 h (100 = growth as untreated, 0 = no growth, -100 = all killed)
- protocolConditions: 10 µM unless noted
About 83,000 compounds went through this panel and 20% of them were active in at least one assay; those are over-represented in the sample as a whole. Calls of active or inactive are those of the source. Rule for the calls: active = growth percent below 10; inactive = the rest.
Catalogue of growth values

Some solved cases for reference:
molecule	targetOrSystem	growth
COc1ccc(C(=O)/C=C/c2c(F)cccc2Cl)cc1S(N)(=O)=O	NCI-H522 lung	-61.1% (active)
COc1ccc(-c2nc3cc(C)ccc3n2CC(=O)N=Nc2c(O)[nH]c3ccc(OC)cc23)cc1	NCI-H522 lung	-40.9% (active)
CCCCCCCCOc1cccc(S(=O)(=O)Nc2ccc(C)cc2C(=O)O)c1	NCI-H522 lung	86.5% (inactive)
COc1ccc(NC(=O)c2sc3nc(C(C)C)ccc3c2N)cc1	NCI-H522 lung	75.7% (inactive)
CC1(C)CC[C@]2(C(=O)O)CC[C@]3(C)C(=CCC4[C@@]5(C)C[C@@H](O)[C@@H]6OC(c7ccco7)OC[C@@]6(C)C5CC[C@]43C)C2C1 (stereo partly specified)	NCI-H522 lung	20.7% (inactive)

Tell me the measured growth of "O=C(Cn1nc(-c2ccccc2)ccc1=O)N/N=C/c1ccc(N2CCOCC2)cc1" , please.
89.4% (inactive)

----------
- System: 786-0 renal
- assayMethodText: NCI-60 one-dose screen, 48 h (100 = growth as untreated, 0 = no growth, -100 = all killed)
- protocolConditions: 10 µM unless noted
Compounds without any hit were thinned out: in the full panel of roughly 83,000, 20% have a hit.
Mark true for growth under 40%, false if at or over.

compound	targetOrSystem	groupLabel
C=C1CC[C@@H]2[C@]3(C)COC(c4cn(-c5ccccc5)nc4-c4cccc([N+](=O)[O-])c4)O[C@@H]3CC[C@@]2(C)[C@@H]1C/C=C1/C(=O)OC[C@H]1O (stereo partly drawn)	786-0 renal	true
CCC(C)(C)c1ccc(OCCCCN2CCN(c3ccncc3)CC2)cc1	786-0 renal	true
CCCCSc1nc(NCCc2c[nH]c3ccccc23)c(C#N)c(-c2ccc(OC)cc2)n1	786-0 renal	false
Cn1cc(-c2cc(N)n3nc(-c4cn(C)c5ccc(Cl)cc45)cc3n2)c2ccccc21	786-0 renal	false
Cc1ccc(NC(=O)[C@]23CCC(C)(C)CC2C2=CCC4[C@@]5(C)C[C@@H](O)[C@H](O)[C@@](C)(CO)C5CC[C@@]4(C)[C@]2(C)CC3)cc1 (stereo partly drawn)	786-0 renal	true

Identify whether the compound "N/C(=N\c1nc2ccccc2s1)NC(=O)Nc1ccccc1Br" records growth below 40%.
true

Identify whether the compound "CCCCNC(=S)Nc1ccc(OCc2nc3ccccc3[nH]2)cc1" records growth below 40%.
false

Identify whether the compound "CSc1ccc(C(=O)Nc2ccc3nn(/C(C#N)=C/c4ccccn4)nc3c2)cc1" records growth below 40%.
true

Identify whether the compound "Cn1cc(-c2cc(N)n3nc(-c4cn(C)c5ccccc45)cc3n2)c2cc(Cl)ccc21" records growth below 40%.
true

Identify whether the compound "Cc1ccc(NC(=O)CN2CCN(c3ncnc4c3cnn4-c3ccccc3)CC2)cc1" records growth below 40%.
false

Identify whether the compound "CN(C)c1nc(NCCNS(=O)(=O)c2ccc(C(=O)/C=C/c3ccc(Cl)cc3)cc2)nc(Nc2ccc(F)cc2)n1" records growth below 40%.
true

Identify whether the compound "N#Cc1c(-c2ccc(Cl)cc2)nc2n[nH]c(-c3ccc(Cl)cc3)c2c1-c1ccc(C(F)(F)F)cc1" records growth below 40%.
true

Identify whether the compound "COc1ccc(C(=O)/C=C/c2ccccc2Cl)cc1S(N)(=O)=O" records growth below 40%.
false

----------
- Test system: HOP-92 NSCLC
- assayMethodText: NCI-60 one-dose screen, 48 h
- protocolConditions: 10 µM unless noted
About 83,000 compounds went through this panel and 20% of them were active in at least one assay; those are over-represented in the sample as a whole. Activity calls are given as the source filed them. How the source made its calls: active means growth percent below 10; inactive means the rest.
I would appreciate it if you answered using one of these outcomes: y (active), n (inactive)

Known results for compounds:
compound	groupLabel
COc1ccc2cc([C@H](C)C(=O)N/N=C/c3ccc(Br)cc3)ccc2c1	n
COc1cc2c(c(OC)c1OC)C(=O)CC(c1cccc(NC(=O)c3cc(NC(=O)[C@@H](N)CO)ccc3C)c1)O2 (stereo partly specified)	n
CC(=O)NNc1ccc2nnc(-c3ccccc3)n2n1	n
CC1(C)CC[C@]2(C(=O)O)CC[C@]3(C)C(=CCC4[C@@]5(C)C[C@@H](O)[C@@H]6OC(c7ccc(F)cc7)OC[C@@]6(C)C5CC[C@]43C)C2C1 (stereo partly specified)	y

I would be grateful if you could indicate the recorded call for "O=C(CSc1nc2ccccc2c(=O)[nH]1)NCCN1CCCCC1" .
n

I would be grateful if you could indicate the recorded call for "COc1ccc(NC(=O)Cn2c(O)c(N=Nc3ccc(S(N)(=O)=O)cc3)c3ccccc32)cc1" .
n

I would be grateful if you could indicate the recorded call for "C#CCOc1ccc(/C=N/Nc2nc(-c3cc4cc(Br)ccc4oc3=O)cs2)cc1OC" .
n

I would be grateful if you could indicate the recorded call for CC1(C)CC[C@]2(C(=O)Nc3ccccc3)CC[C@]3(C)C(=CCC4[C@@]5(C)C[C@@H](O)[C@H](O)[C@@](C)(CO)C5CC[C@]43C)C2C1 (stereo partly specified) .
n

----------
- System: U251 CNS
- assayMethodText: NCI-60 one-dose screen, 48 h
- protocolConditions: 10 µM unless noted
This is part of a sample that, as a whole, favours compounds with a hit. Of some 83,000 tested, about 20% had one in any assay. Active and inactive are the calls of the source. Rule for the calls: active = growth percent below 10; inactive = the rest.
I would appreciate it if you answered using one of these outcomes: Y = active, N = inactive

compound	groupLabel
COc1ccc(C(=O)/C=C/c2ccc(OC)c(OCc3ccccc3)c2)cc1OC	Y
Cc1cnc(C(=O)NNc2nc3cc(F)ccc3n3c(C(=O)N4CC5CC(C4)N5)ccc23)cn1	N
COc1cc2c(c(OC)c1OC)C(=O)CC(c1cccc(NC(=O)c3cc(NC(=O)[C@H](C)N)ccc3Cl)c1)O2 (stereo partly specified)	N
COc1ccc(-c2nnc3ccc(N/N=C/c4ccc(O)cc4)nn23)cc1	N
CSc1ccc(C(=O)Nc2ccc3nn(/C(C#N)=C/c4ccccn4)nc3c2)cc1	Y
O=C(Nc1cccc(-n2cnc3cc(-c4ccc(O)cc4)ccc32)c1)C1CC1	Y

I would be grateful if you could indicate the recorded call for "COc1ccc(C(SCCNCc2cc(N(C)C)ccn2)(c2ccccc2)c2ccccc2)cc1" .
Y

I would be grateful if you could indicate the recorded call for O=C(c1ccc(OCCN2CCOCC2)cc1)C1[C@H](c2ccc(Cl)cc2)[C@@H](c2ccccc2)NC12C(=O)Nc1ccc(Br)cc12 (stereo partly specified) .
N

I would be grateful if you could indicate the recorded call for Cc1ccccc1[C@H]1C(C(=O)c2ccc(Cl)cc2)C2(N[C@@H]1c1ccccc1)C(=O)Nc1ccc(Br)cc12 (stereo partly specified) .
Y

I would be grateful if you could indicate the recorded call for "CCN1C(=O)/C(=N\N=C(/C)c2ccc3c(c2)Nc2ccccc2S3)c2cc(Cl)ccc21" .
N

I would be grateful if you could indicate the recorded call for "C/C(=N\N=C1/C(=O)Nc2ccccc21)c1ccc2c(c1)Nc1ccccc1S2" .
N

----------
- Tested on: MDA-MB-468 breast
- assayMethodText: NCI-60 one-dose screen, 48 h
- protocolConditions: 10 µM unless noted
Compounds without any hit were thinned out: in the full panel of roughly 83,000, 20% have a hit. Activity calls are given as the source filed them. The calls were made as follows: active = growth percent below 10; inactive = the rest.
I would appreciate it if you answered using one of these outcomes: active, inactive

compound	targetOrSystem	groupLabel
O=c1[nH]c(=O)c2c(-c3cc4ccccc4oc3=O)ccnc2[nH]1	MDA-MB-468 breast	inactive

I would be grateful if you could indicate the recorded call for "O=C(NNc1ccccc1)n1c(=O)c2ccccc2c(=O)n1-c1ccccc1" .
inactive

I would be grateful if you could indicate the recorded call for CN(C)c1nc(NCCNS(=O)(=O)c2ccc(C3=Nc4c(N)nc(N)nc4NC(c4ccc(C(F)(F)F)cc4)C3)cc2)nc(Nc2ccc(F)cc2)n1 (stereo not drawn) .
active

I would be grateful if you could indicate the recorded call for "COc1ccc(-c2ccc(SCC(=O)Nc3ccc(S(N)(=O)=O)cc3Br)nn2)cc1" .
inactive

I would be grateful if you could indicate the recorded call for C=C1CC[C@@H]2[C@]3(C)COC(c4cn[nH]c4-c4ccc(C)cc4)O[C@@H]3CC[C@@]2(C)[C@@H]1C/C=C1/C(=O)OCC1O (stereo partly drawn) .
active

I would be grateful if you could indicate the recorded call for CC12CC[C@@H]3[C@]4(C)COC(c5cn[nH]c5-c5ccc(Br)cc5)O[C@@H]4CC[C@@]3(C)[C@@H]1CC(C1=CCOC1=O)O2 (stereo partly drawn) .
active

I would be grateful if you could indicate the recorded call for "CC(=O)N1CCN(Cc2ccc3c(NNC(=O)c4cnccn4)nc4cc(F)ccc4n23)CC1" .
active
